biological target: truncated rat FAAH (rFAAH) (Rattus norvegicus); construct: The truncated rat FAAH (rFAAH) was expressed in E. coli and purified as described by Patricelli et al; made in house; host or cells: E. coli; assay: Rat FAAH inhibition enzyme assay (14C-oleamide hydrolysis, Dixon plot); type: biochemical; conditions: Table 4; value ± error; read-out: Ki, inhibition results with calculated errors
Sequence (P97612 30-579 limits assumed): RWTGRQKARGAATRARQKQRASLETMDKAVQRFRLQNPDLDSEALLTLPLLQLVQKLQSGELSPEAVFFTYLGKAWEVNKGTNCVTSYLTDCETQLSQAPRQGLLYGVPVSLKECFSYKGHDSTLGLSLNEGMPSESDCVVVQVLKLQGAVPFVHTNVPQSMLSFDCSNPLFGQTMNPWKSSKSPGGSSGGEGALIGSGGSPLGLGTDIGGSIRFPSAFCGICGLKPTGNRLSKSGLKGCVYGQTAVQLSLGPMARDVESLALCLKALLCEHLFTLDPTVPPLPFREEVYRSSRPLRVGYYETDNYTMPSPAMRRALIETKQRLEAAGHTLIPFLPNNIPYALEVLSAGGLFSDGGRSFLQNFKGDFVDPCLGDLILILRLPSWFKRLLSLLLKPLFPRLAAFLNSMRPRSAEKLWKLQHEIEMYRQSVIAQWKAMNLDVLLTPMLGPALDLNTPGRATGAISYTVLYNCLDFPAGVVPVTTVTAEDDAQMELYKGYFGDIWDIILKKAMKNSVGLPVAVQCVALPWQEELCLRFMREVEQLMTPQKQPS
ENDPOINT_LABEL: Ki (nM)

[I] O=C(CCCCCCc1ccccc1)c1nc(Cl)co1 [Compound 4c]
[II] O=C(CCCCCCc1ccccc1)c1nc(C(=O)C(F)(F)F)co1 [Compound 4i]
[III] CC(=O)c1coc(C(=O)CCCCCCc2ccccc2)n1 [Compound 4h]
Qu. Using measured Ki, arrange the compounds from above in descending sequence. Labels, ranked as asked.
Ans. II, I, III

[a] O=C(CCCCCCc1ccccc1)c1nc(Br)co1 [Compound 4b]
[b] N#Cc1coc(C(=O)CCCCCCc2ccccc2)n1 [Compound 4s]
Qu. Looking only at measured Ki, which entry is lower, a or b ? Choose, then provide that item's label.
Ans. b
(b: 0.5 nM, a: 3 nM)
